- System: NB4
- method.notes: Leukemia cell growth inhibition, MTT, 72 h
- Assay type: cell-based, human
- test.conditions: Homo sapiens, NB-4; 72 h, MTT
Decide using IC50 alone. Strictly below 0.3 µg/mL: true (1). Equal to or above 0.3 µg/mL: false (0).

> print(dat)
                              smiles.string        cat
1  C=C1C(=O)[C@]23[C@H](OC(=O)c4ccccc4Br)[C@H]1CC[C@H]2[C@@]12CO[C@@]3(O)[C@@H](O)[C@@H]1C(C)(C)CCC2=O   true (1)
2  C=C1C(=O)[C@]23[C@H](OC(=O)c4ccccc4Cl)[C@H]1CC[C@H]2[C@@]12CO[C@@]3(O)[C@@H](O)[C@@H]1C(C)(C)CCC2=O   true (1)
3  C=C1C(=O)[C@]23[C@H](OC(=O)/C=C/c4ccccc4)[C@H]1CC[C@H]2[C@@]12CO[C@@]3(O)[C@@H](O)[C@@H]1C(C)(C)CCC2=O  false (0)
4  C=C1C(=O)[C@]23[C@H](OC(=O)c4ccccc4)[C@H]1CC[C@H]2[C@@]12CO[C@@]3(O)[C@@H](O)[C@@H]1C(C)(C)CCC2=O   true (1)
5  C=C1C(=O)[C@]23[C@H](O)[C@H]1CC[C@H]2[C@@]12CO[C@]3(O)[C@@H](O)[C@@H]1C(C)(C)CC[C@@H]2O  false (0)
6  C=C1C(=O)[C@]23[C@H](OC(=O)c4ccc(Cl)cc4)[C@H]1CC[C@H]2[C@@]12CO[C@@]3(O)[C@@H](O)[C@@H]1C(C)(C)CCC2=O   true (1)
